Target: DNMT3A2/3L complex (Homo sapiens, UniProt Q9Y6K1)
Assay: Inhibition of N-terminal His-tagged human DNMT3A (623 to 912 residues)/N-terminal GST-tagged human DNMT3L (160 to 387 residues) co-expressed in baculovirus infected Sf9 cells assessed as DNA methylation using DNA oligonucleotide IDT-01 as substrate preincubated for 15 mins followed by substrate addition in presence of [3H]-SAM and measured after 4 hrs by radioactive methylation assay
Measured pIC50 by item
A value of pIC50 is the negative decimal logarithm of a concentration given in moles per litre.

Given item `Cc1oc2ncn(CCCN3CCCCC3)c(=O)c2c1C(=O)Nc1ccc(S(N)(=O)=O)nc1` , the value recorded as its pIC50 is 5.89

Given item `Cc1oc2ncn(CCCN3CCCC3)c(=O)c2c1C(=O)Nc1ccc(S(N)(=O)=O)nc1` , the value recorded as its pIC50 is 5.74

* * *

IC50 data for Histone-lysine N-methyltransferase EHMT2 (Homo sapiens) follow.

Would you please look over these solved cases?
Cc1oc2ncn(CCN3CCCCC3)c(=O)c2c1C(=O)Nc1ccc(S(N)(=O)=O)nc1 | > 500 µM
Cc1oc2ncn(CCN3CCCC3)c(=O)c2c1C(=O)Nc1ccc(S(N)(=O)=O)nc1 | > 500 µM

Field: next molecule
Let me check: `Cc1oc2ncn(CCN(C)C)c(=O)c2c1C(=O)Nc1ccc(S(N)(=O)=O)nc1` , system Histone-lysine N-methyltransferase EHMT2 (Homo sapiens), measured IC50 is > 500 µM

* * *

Measured inhibition by item
Molecular target: DNMT3A2/3L complex (Homo sapiens) (UniProt Q9Y6K1+Q9UJW3)
Sequence (Q9UJW3 whole entry, looked up, the tested form may be a part): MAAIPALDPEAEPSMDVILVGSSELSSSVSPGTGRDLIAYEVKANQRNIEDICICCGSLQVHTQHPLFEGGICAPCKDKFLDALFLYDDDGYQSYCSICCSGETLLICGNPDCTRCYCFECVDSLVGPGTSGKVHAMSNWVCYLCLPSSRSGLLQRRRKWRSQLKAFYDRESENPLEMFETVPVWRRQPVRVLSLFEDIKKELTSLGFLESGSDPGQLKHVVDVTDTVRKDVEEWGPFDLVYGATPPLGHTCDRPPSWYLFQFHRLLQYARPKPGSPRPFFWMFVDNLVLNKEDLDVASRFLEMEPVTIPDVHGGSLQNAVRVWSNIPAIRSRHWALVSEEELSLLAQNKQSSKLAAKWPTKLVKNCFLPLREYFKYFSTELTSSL
Sequence (Q9Y6K1 whole entry, looked up, the tested form may be a part): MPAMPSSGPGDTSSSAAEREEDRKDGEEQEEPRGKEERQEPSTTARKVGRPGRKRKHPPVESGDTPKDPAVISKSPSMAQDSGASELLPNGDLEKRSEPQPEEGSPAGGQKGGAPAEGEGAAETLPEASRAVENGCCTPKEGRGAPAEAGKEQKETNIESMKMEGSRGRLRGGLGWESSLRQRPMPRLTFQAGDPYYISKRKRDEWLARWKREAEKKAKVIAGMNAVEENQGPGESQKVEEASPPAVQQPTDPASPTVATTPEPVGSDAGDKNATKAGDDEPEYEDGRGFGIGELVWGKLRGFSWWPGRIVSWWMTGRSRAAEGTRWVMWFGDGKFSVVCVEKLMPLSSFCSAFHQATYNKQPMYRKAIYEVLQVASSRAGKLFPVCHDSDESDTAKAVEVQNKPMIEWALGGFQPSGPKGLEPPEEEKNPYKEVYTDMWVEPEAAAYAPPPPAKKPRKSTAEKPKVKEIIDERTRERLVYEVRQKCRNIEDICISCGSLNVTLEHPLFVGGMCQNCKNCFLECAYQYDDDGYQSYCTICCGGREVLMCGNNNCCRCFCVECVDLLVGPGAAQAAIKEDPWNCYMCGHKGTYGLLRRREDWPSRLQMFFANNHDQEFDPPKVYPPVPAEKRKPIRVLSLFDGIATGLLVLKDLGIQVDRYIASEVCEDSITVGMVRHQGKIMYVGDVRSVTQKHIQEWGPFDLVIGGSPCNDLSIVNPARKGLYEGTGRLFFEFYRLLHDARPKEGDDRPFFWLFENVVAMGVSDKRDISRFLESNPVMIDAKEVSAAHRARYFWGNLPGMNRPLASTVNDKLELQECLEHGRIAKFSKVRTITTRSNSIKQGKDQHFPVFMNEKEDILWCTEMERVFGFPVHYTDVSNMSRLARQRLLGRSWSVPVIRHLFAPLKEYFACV
Test: Inhibition of N-terminal His-tagged human DNMT3A (623 to 912 residues)/N-terminal GST-tagged human DNMT3L (160 to 387 residues) co-expressed in baculovirus infected Sf9 cells assessed as DNA methylation using DNA oligonucleotide IDT-01 as substrate at 100 uM preincubated for 15 mins followed by substrate addition in presence of [3H]-SAM and measured after 4 hrs by radioactive methylation assay
Settings: time 255.0 min

Would you please look over these solved cases?
Cc1oc2ncn(CCN(C)C)c(=O)c2c1C(=O)Nc1ccc(S(N)(=O)=O)nc1 | 81.8%
Cc1oc2ncn(CCN3CCCCC3)c(=O)c2c1C(=O)Nc1ccc(C#N)cc1 | 14.3%
Cc1oc2ncn(CCCN(C)C)c(=O)c2c1C(=O)Nc1ccc(C#N)cc1 | 36%
Cc1oc2ncn(Cc3cccnc3)c(=O)c2c1C(=O)Nc1ccc(S(N)(=O)=O)nc1 | 48%
Cc1oc2ncn(CCCN3CCCC3)c(=O)c2c1C(=O)Nc1ccc(S(N)(=O)=O)nc1 | 94.1%

Given item `Cc1oc2ncn(CCN(C)C)c(=O)c2c1C(=O)Nc1ccc(C#N)cc1` , the value recorded as its inhibition is 24%

Given item `Cc1sc2ncn(CCN3CCOCC3)c(=O)c2c1C(=O)Nc1ccc(S(N)(=O)=O)nc1` , the value recorded as its inhibition is 40.4%

Given item `Cc1oc2ncn(CCCN3CCOCC3)c(=O)c2c1C(=O)Nc1ccc(C#N)cc1` , the value recorded as its inhibition is 28.4%

Given item `Cc1oc2ncn(CCN3CCOCC3)c(=O)c2c1C(=O)Nc1ccc(C#N)cc1` , the value recorded as its inhibition is 5.8%

Given item `Cc1oc2ncn(CCN3CCCC3)c(=O)c2c1C(=O)Nc1ccc(S(N)(=O)=O)nc1` , the value recorded as its inhibition is 93.1%

Given item `Cc1sc2ncn(CCCN(C)C)c(=O)c2c1C(=O)Nc1ccc(S(N)(=O)=O)nc1` , the value recorded as its inhibition is 57.5%

Given item `Cc1oc2ncn(CCCN3CCOCC3)c(=O)c2c1C(=O)Nc1ccc(S(N)(=O)=O)nc1` , the value recorded as its inhibition is 54.2%
